# Test system: transactivating tegument protein VP16 (Human herpesvirus 1)
# METHOD_DESCRIPTION: VP16 transactivation reporter inhibitors, counter-screen for SRC2 inhibitor project, cell-based, luminescence, single concentration (AID 652007)
# STATED_CONDITIONS: cell-based VP16 transactivation luciferase reporter, at 8.9 µM, hits give high values
Overview of reported inhibition across a group of compounds:
# unit: % | format: bare number

These solved cases illustrate the format of a correct answer.
OC[C@@H]1CN(Cc2ccc(-c3ccccc3)cc2)C[C@H](n2cnc3c(NCc4ccc(F)cc4)ncnc32)O1 = 20.8
NC(=S)NN=Cc1nccc2c(C(F)(F)C(F)(F)C(F)(F)F)cccc12 = -16.1
CS(=O)(=O)c1ccc(Cl)c(NC(=O)c2cccc(-n3cnnn3)c2)c1 = -11.3

Request: Identify the reported inhibition for the following entry. `CC(C)(C)c1ccc(-c2n[nH]c(=S)n2C2CCCC2)cc1`
Result: 1.72

Request: Could you please provide reported inhibition for `O=C(Nc1ccc(NC(=O)c2ccco2)cc1)c1ccc2c(c1)OCCO2` ? Thanks!
Result: -30.2

Request: Provide only the value of recorded inhibition for `CCn1c(SCC(=O)c2ccc(-c3ccccc3)cc2)nnc1-c1ccc(C(C)(C)C)cc1`
Result: 22.6

----------
Overview of reported inhibition across a group of compounds:
# TARGET_OR_TEST_SYSTEM: Nuclear receptor subfamily 5 group A member 2 (Homo sapiens) (UniProt O00482)
# Sequence (O00482 whole entry, looked up): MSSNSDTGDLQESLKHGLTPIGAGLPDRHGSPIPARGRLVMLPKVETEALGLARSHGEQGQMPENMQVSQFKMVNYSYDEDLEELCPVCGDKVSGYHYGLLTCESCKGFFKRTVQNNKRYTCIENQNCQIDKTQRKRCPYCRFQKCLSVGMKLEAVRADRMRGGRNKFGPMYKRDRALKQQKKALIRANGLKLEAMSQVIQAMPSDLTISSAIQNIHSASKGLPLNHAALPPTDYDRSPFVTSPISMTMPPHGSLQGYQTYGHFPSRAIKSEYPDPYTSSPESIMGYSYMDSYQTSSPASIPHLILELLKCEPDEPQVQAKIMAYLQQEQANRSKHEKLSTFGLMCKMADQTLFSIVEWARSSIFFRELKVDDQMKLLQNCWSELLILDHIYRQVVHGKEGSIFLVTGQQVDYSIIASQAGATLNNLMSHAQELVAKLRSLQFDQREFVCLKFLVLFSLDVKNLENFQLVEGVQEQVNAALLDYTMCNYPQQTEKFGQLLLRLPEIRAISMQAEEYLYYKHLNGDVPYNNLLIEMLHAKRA
# METHOD_DESCRIPTION: LRH-1 (NR5A2) inverse agonists, retest, confirmation, cell-based, luminescence (AID 651613);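 also: HEK293T cells co-transfected with LRH-1 and StAR promoter luciferase reporter; 0% = vehicle wells and 100% = parental cells lacking receptor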
# STATED_CONDITIONS: cell-based LRH-1 luciferase reporter, inverse agonism; at 3.6 µM; hits give high values
Write down the numeric answer in % and omit the unit.

CC(=O)Nc1ccc(NC(=O)CSc2nnc(COc3ccccc3C)n2CC2CCCO2)cc1 (stereo unspecified) = 64.6

Request: Report measured inhibition; entry is `c1ccc2c(c1)CC1(CCCC1)n1nnnc1-2`
Result: 52.2

Request: For the compound Cc1ccc(N2CC(C(=O)Nc3nc4ccc(S(C)(=O)=O)cc4s3)CC2=O)cc1C (stereo unspecified) , report inhibition.
Result: 44.6

Request: For `Cc1nn(-c2nc3ccccc3[nH]2)c(=O)c2ccccc12` , write its inhibition.
Result: 63.9

Request: Please supply the value of reported inhibition for the item `COc1ccc(-c2coc3c(C(=O)NCc4ccc(OC)c(OC)c4)cccc23)c(C)c1`
Result: 80.8

Request: Assign inhibition to the following record: `CCn1c(=NC(=O)CCS(=O)(=O)c2ccccc2)sc2cccc(OC)c21`
Result: 108

----------
# TARGET_OR_TEST_SYSTEM: Nuclear receptor coactivator 1 (Homo sapiens) (UniProt Q15788)
# Sequence (Q15788 whole entry, looked up): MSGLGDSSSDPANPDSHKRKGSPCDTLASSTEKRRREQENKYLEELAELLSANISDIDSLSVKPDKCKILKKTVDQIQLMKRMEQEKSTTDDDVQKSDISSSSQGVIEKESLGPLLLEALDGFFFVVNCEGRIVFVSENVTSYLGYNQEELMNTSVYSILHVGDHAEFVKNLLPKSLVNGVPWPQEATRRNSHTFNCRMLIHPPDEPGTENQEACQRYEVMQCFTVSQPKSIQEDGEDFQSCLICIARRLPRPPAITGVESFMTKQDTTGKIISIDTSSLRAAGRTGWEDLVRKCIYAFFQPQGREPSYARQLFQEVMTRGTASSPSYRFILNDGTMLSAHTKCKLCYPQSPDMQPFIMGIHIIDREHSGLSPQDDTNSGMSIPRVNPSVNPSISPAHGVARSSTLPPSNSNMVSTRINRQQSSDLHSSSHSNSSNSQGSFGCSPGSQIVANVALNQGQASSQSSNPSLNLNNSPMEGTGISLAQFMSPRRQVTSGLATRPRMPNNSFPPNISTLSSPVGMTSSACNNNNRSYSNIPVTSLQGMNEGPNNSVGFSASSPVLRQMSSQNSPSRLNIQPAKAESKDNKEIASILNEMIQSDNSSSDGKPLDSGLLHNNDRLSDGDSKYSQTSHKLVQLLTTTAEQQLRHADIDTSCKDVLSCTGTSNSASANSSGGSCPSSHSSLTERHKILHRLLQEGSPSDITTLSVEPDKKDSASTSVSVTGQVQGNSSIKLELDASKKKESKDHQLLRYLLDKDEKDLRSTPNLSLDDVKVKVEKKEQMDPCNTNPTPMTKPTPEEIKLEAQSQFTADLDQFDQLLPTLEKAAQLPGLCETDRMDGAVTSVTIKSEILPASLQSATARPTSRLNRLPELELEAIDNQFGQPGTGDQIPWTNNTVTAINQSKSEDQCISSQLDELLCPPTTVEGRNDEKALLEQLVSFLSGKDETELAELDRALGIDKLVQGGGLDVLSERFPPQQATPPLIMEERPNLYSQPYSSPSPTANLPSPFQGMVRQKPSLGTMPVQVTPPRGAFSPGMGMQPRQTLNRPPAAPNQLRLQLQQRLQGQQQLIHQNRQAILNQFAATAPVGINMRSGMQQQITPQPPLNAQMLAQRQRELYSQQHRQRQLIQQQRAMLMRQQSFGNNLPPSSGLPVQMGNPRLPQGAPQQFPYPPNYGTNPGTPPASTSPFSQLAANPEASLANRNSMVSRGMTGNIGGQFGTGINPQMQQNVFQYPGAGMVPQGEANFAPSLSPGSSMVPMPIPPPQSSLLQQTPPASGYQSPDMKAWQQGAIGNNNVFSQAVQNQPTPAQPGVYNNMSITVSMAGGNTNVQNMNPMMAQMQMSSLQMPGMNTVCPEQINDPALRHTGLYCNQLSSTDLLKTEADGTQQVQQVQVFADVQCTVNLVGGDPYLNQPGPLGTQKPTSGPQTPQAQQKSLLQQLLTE
# METHOD_DESCRIPTION: SRC1 coactivator transcriptional activity inhibitors, confirmation, cell-based, luminescence, quadruplicate (AID 588820);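 also: 0% = DMSO wells and 100% = gossypol 36 µM treated wells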
# STATED_CONDITIONS: HEK293 GAL4-SRC1 luciferase reporter, at 3.6 µM, hits give high values
MEASURED_ENDPOINT: inhibition (%)
Write the answer as a number in %, unit excluded.

The examples below pair each entry with its known result.
CC(=O)c1cccc(NC(=O)COc2cc3oc(=O)c(CC(C)O)c(C)c3cc2Cl)c1 (stereo not given) = 28.4
O=[N+]([O-])c1ccc(Sc2cccc[n+]2[O-])c2nonc12 = 91.7
CC(C)(C)c1ccc(C(=O)NCCOc2ccccc2F)cc1 = -61
Cc1ccccc1C(=O)N1CCN(c2ccc(NC(=O)c3ccc4c(c3)OCCO4)cc2)CC1 = 32.2
CN(Cc1ccccc1)C(=O)c1ccc(NC(=O)Cc2ccc(NC(=O)C3CCCN(C(=O)CCc4ccccc4)C3)cc2)cc1 (stereo not given) = -11.5

Request: For the molecule `CC(=O)c1cn(CC(=O)Nc2cccc(C)c2C)c2ccccc12` , give its measured inhibition value.
Result: -15.8

Request: Input `Brc1cccc(CSc2nnc(-c3ccncc3)o2)c1` , output reported inhibition.
Result: 44.4

Request: Write down inhibition measured for item `O=C(CCCN1C(=O)/C(=C/c2ccccc2Cl)SC1=S)NNC(=O)c1ccncc1`
Result: 10.8
